Below, each entry is listed alongside its reported macrophage phagocytosis (untreated = 1.00).
# System: Toledo Cells
# assay_details: FACS-based phagocytosis assay, macrophages cocultured with Toledo cells
# Format: cell-based, Human
# assay_setup: Cpd 0.2 uM, T4J = 0.1 ug/ml, R = 0
# Description: FACS-based phagocytosis assays were performed to evaluate the phagocytic abilities of macrophages. Toledo Cells (a tumor cell line, as a target) were labelled with CellTrace™ Far Red and plated into 96-well plate at a density of 0.15×10^6 cells/well for 12 hours. The Macrophages were prepared as discussed above and then labelled with CellTrace Violet. […] Then, cells were acquired and data were analyzed.
Lab note: record just the number, no unit beside it.

Consider the following illustrative entries.
compound | numeric_readout
Nc1ncn([C@@H]2O[C@H](CO)[C@@H](O)[C@H]2O)c(=O)n1 | 2.57
Nc1cccc2c1CN(C1CCC(=O)NC1=O)C2=O (stereo not shown) [Lenalidomide] | 2.61
CC1(C)CCC(CN2CCN(c3ccc(C(=O)NS(=O)(=O)c4ccc(NCC5CCOCC5)c([N+](=O)[O-])c4)c(Oc4cnc5[nH]ccc5c4)c3)CC2)=C(c2ccc(Cl)cc2)C1 | 2.81

Returns the measured macrophage phagocytosis (untreated = 1.00) for the input compound. Input: "Cn1c(CCCC(=O)O)nc2cc(N(CCCl)CCCl)ccc21" 2.51

* * *

Below, each entry is listed alongside its reported Mean Fluorescence Intensity (MFI) Calreticulin.
# System: Calreticulin
# assay_details: FACS analysis of expression level of calreticulin on tumor cell surface
# Format: cell-based, Human
# assay_setup: Toledo cells, 12 hours, 5 uM

molecule | result
C[C@H](Nc1ncnc2nc[nH]c12)c1cc2cccc(Cl)c2c(=O)n1-c1ccccc1 [Duvelisib] | 75.9

Returns the measured Mean Fluorescence Intensity (MFI) Calreticulin for the input molecule. Input: COc1c(OCCCN2CCOCC2)ccc2c1N=C(NC(=O)c1cnc(N)nc1)N1CCN=C21 [Copanlisib] 142

Returns the measured Mean Fluorescence Intensity (MFI) Calreticulin for the input molecule. Input: Nc1cccc2c1CN(C1CCC(=O)NC1=O)C2=O (centres unmarked) [Lenalidomide] 75.2

Returns the measured Mean Fluorescence Intensity (MFI) Calreticulin for the input molecule. Input: Nc1ncn([C@@H]2O[C@H](CO)[C@@H](O)[C@H]2O)c(=O)n1 [Azacitidine] 491

Returns the measured Mean Fluorescence Intensity (MFI) Calreticulin for the input molecule. Input: Cn1c(CCCC(=O)O)nc2cc(N(CCCl)CCCl)ccc21 [Bendamustine] 86.2

Returns the measured Mean Fluorescence Intensity (MFI) Calreticulin for the input molecule. Input: CC1(C)CCC(CN2CCN(c3ccc(C(=O)NS(=O)(=O)c4ccc(NCC5CCOCC5)c([N+](=O)[O-])c4)c(Oc4cnc5[nH]ccc5c4)c3)CC2)=C(c2ccc(Cl)cc2)C1 [Venetoclax] 2533

Returns the measured Mean Fluorescence Intensity (MFI) Calreticulin for the input molecule. Input: CC[C@H](Nc1ncnc2[nH]cnc12)c1nc2cccc(F)c2c(=O)n1-c1ccccc1 [Idelalisib] 75.8

Returns the measured Mean Fluorescence Intensity (MFI) Calreticulin for the input molecule. Input: C=CC(=O)N1CCC[C@@H](n2nc(-c3ccc(Oc4ccccc4)cc3)c3c(N)ncnc32)C1 [Ibrutinib] 79

* * *

# Tested on: Calreticulin
# assay_details: FACS analysis of expression level of calreticulin on tumor cell surface
# Format: cell-based, Human
# assay_setup: Toledo cells, 12 hours, 1 uM
reported_property: Mean Fluorescence Intensity (MFI) Calreticulin
Lab note: record just the number, no unit beside it.

compound | study_system | numeric_readout
C[C@H](Nc1ncnc2nc[nH]c12)c1cc2cccc(Cl)c2c(=O)n1-c1ccccc1 [Duvelisib] | Calreticulin | 75.7

Returns the measured Mean Fluorescence Intensity (MFI) Calreticulin for the input compound. Input: C=CC(=O)N1CCC[C@@H](n2nc(-c3ccc(Oc4ccccc4)cc3)c3c(N)ncnc32)C1 [Ibrutinib] 69.9

Returns the measured Mean Fluorescence Intensity (MFI) Calreticulin for the input compound. Input: Nc1ncn([C@@H]2O[C@H](CO)[C@@H](O)[C@H]2O)c(=O)n1 [Azacitidine] 174

Returns the measured Mean Fluorescence Intensity (MFI) Calreticulin for the input compound. Input: Nc1cccc2c1CN(C1CCC(=O)NC1=O)C2=O (stereo not shown) [Lenalidomide] 75.6

* * *

# Test system: Calreticulin
# assay_details: FACS analysis of expression level of calreticulin on tumor cell surface
# Type: cell-based, Human
# assay_setup: Toledo cells, 12 hours, 0.2 uM
# Description: For FACS analysis, on the day of analysis (day 1), Toledo cells were seeded into 96 well plate and cultured at a density of 0.2×10^6 cells/well. Then the cells were treated with the selected small molecule therapeutic agents for 12 hours. On day 2, cells were harvested, washed twice and then re-suspended in 100 uL FACS buffer subject to FACS analysis. […] Then, the cells were subject to FACS analysis. Data was acquired and analyzed.
Below, each entry is listed alongside its reported Mean Fluorescence Intensity (MFI) Calreticulin.

compound | result
COc1c(OCCCN2CCOCC2)ccc2c1N=C(NC(=O)c1cnc(N)nc1)N1CCN=C21 [Copanlisib] | 79.4
Nc1cccc2c1CN(C1CCC(=O)NC1=O)C2=O (centres unmarked) [Lenalidomide] | 73.4

Returns the measured Mean Fluorescence Intensity (MFI) Calreticulin for the input compound. Input: Cn1c(CCCC(=O)O)nc2cc(N(CCCl)CCCl)ccc21 [Bendamustine] 70.2

Returns the measured Mean Fluorescence Intensity (MFI) Calreticulin for the input compound. Input: Nc1ncn([C@@H]2O[C@H](CO)[C@@H](O)[C@H]2O)c(=O)n1 [Azacitidine] 88.4

Returns the measured Mean Fluorescence Intensity (MFI) Calreticulin for the input compound. Input: CC[C@H](Nc1ncnc2[nH]cnc12)c1nc2cccc(F)c2c(=O)n1-c1ccccc1 [Idelalisib] 70.6

Returns the measured Mean Fluorescence Intensity (MFI) Calreticulin for the input compound. Input: C[C@H](Nc1ncnc2nc[nH]c12)c1cc2cccc(Cl)c2c(=O)n1-c1ccccc1 [Duvelisib] 71.4

Returns the measured Mean Fluorescence Intensity (MFI) Calreticulin for the input compound. Input: C=CC(=O)N1CCC[C@@H](n2nc(-c3ccc(Oc4ccccc4)cc3)c3c(N)ncnc32)C1 [Ibrutinib] 74.5

Returns the measured Mean Fluorescence Intensity (MFI) Calreticulin for the input compound. Input: CC1(C)CCC(CN2CCN(c3ccc(C(=O)NS(=O)(=O)c4ccc(NCC5CCOCC5)c([N+](=O)[O-])c4)c(Oc4cnc5[nH]ccc5c4)c3)CC2)=C(c2ccc(Cl)cc2)C1 [Venetoclax] 471

* * *

# Tested on: CD47
# assay_details: FACS analysis of expression level of CD47 on tumor cell surface
# Assay type: cell-based, Human
# assay_setup: Toledo cells, 12 hours, 5 uM
Tick 1 (yes) if Mean Fluorescence Intensity (MFI) CD47 is 8000 or greater. Tick 0 (no) if Mean Fluorescence Intensity (MFI) CD47 is less than 8000.

Observe how each entry below is paired with its result.
molecule | class_name
Nc1cccc2c1CN(C1CCC(=O)NC1=O)C2=O (centres unmarked) [Lenalidomide] | 1 (yes)
COc1c(OCCCN2CCOCC2)ccc2c1N=C(NC(=O)c1cnc(N)nc1)N1CCN=C21 | 0 (no)
C=CC(=O)N1CCC[C@@H](n2nc(-c3ccc(Oc4ccccc4)cc3)c3c(N)ncnc32)C1 | 1 (yes)

Is Mean Fluorescence Intensity (MFI) CD47 for "CC1(C)CCC(CN2CCN(c3ccc(C(=O)NS(=O)(=O)c4ccc(NCC5CCOCC5)c([N+](=O)[O-])c4)c(Oc4cnc5[nH]ccc5c4)c3)CC2)=C(c2ccc(Cl)cc2)C1" at or above 8000? 0 (no)

* * *

# System: Calreticulin
# assay_details: FACS analysis of expression level of calreticulin on tumor cell surface
# Format: cell-based, Human
# assay_setup: Toledo cells, 12 hours, 0.04 uM
# Procedure: For FACS analysis, on the day of analysis (day 1), Toledo cells were seeded into 96 well plate and cultured at a density of 0.2×10^6 cells/well. Then the cells were treated with the selected small molecule therapeutic agents for 12 hours. On day 2, cells were harvested, washed twice and then re-suspended in 100 uL FACS buffer subject to FACS analysis. […] Then, the cells were subject to FACS analysis. Data was acquired and analyzed.
reported_property: Mean Fluorescence Intensity (MFI) Calreticulin
Lab note: record just the number, no unit beside it.

Consider the following illustrative entries.
chem_smiles | numeric_readout
CC1(C)CCC(CN2CCN(c3ccc(C(=O)NS(=O)(=O)c4ccc(NCC5CCOCC5)c([N+](=O)[O-])c4)c(Oc4cnc5[nH]ccc5c4)c3)CC2)=C(c2ccc(Cl)cc2)C1 | 258
C[C@H](Nc1ncnc2nc[nH]c12)c1cc2cccc(Cl)c2c(=O)n1-c1ccccc1 | 71.2

With those in mind, consider the next molecule.
Returns the measured Mean Fluorescence Intensity (MFI) Calreticulin for the input molecule. Input: "CC[C@H](Nc1ncnc2[nH]cnc12)c1nc2cccc(F)c2c(=O)n1-c1ccccc1" 72.9

* * *

# System: Calreticulin
# assay_details: FACS analysis of expression level of calreticulin on tumor cell surface
# Format: cell-based, Human
# assay_setup: Toledo cells, 12 hours, 1 uM
reported_property: Mean Fluorescence Intensity (MFI) Calreticulin
Lab note: record just the number, no unit beside it.

chem_smiles | numeric_readout
Cn1c(CCCC(=O)O)nc2cc(N(CCCl)CCCl)ccc21 | 76.3
COc1c(OCCCN2CCOCC2)ccc2c1N=C(NC(=O)c1cnc(N)nc1)N1CCN=C21 | 106
CC1(C)CCC(CN2CCN(c3ccc(C(=O)NS(=O)(=O)c4ccc(NCC5CCOCC5)c([N+](=O)[O-])c4)c(Oc4cnc5[nH]ccc5c4)c3)CC2)=C(c2ccc(Cl)cc2)C1 | 1123

Returns the measured Mean Fluorescence Intensity (MFI) Calreticulin for the input molecule. Input: "CC[C@H](Nc1ncnc2[nH]cnc12)c1nc2cccc(F)c2c(=O)n1-c1ccccc1" 77.6
